Test system: Escherichia coli TOP10;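 note: peptides expressed intracellularly from a pBAD plasmid library in pooled LB shake-flask culture, induced with 0.3% L-arabinose, DNA abundance read by NGS, three biological replicates, DESeq2 with apeglm shrinkage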
assay text: shrunken log2 fold change of peptide-encoding DNA abundance (4.5 h post-induction vs induction); higher = less antimicrobial activity (less host growth inhibition)
condition parameters: time post-induction: 4.5 h; library: site-saturation at positions 5, 18, 19, 20
experimental readout: shrunken log2 fold change

sequence text	measured on	experimental readout	measured value
RRIRKRPPRLPRPRPRPQGGPRP	Escherichia coli TOP10	shrunken log2 fold change	0.0321
RRIRDRPPRLPRPRPRPALNPRP	Escherichia coli TOP10	shrunken log2 fold change	-0.0576
RRIRPRPPRLPRPRPRPPAPPRP	Escherichia coli TOP10	shrunken log2 fold change	0.629
RRIRARPPRLPRPRPRPHNCPRP	Escherichia coli TOP10	shrunken log2 fold change	-0.162
RRIRARPPRLPRPRPRPNQGPRP	Escherichia coli TOP10	shrunken log2 fold change	0.392
RRIRVRPPRLPRPRPRPIPTPRP	Escherichia coli TOP10	shrunken log2 fold change	0.191
RRIRTRPPRLPRPRPRPPGDPRP	Escherichia coli TOP10	shrunken log2 fold change	0.189
RRIRYRPPRLPRPRPRPVFAPRP	Escherichia coli TOP10	shrunken log2 fold change	0.0473
RRIRCRPPRLPRPRPRPFMVPRP	Escherichia coli TOP10	shrunken log2 fold change	-0.502
RRIRMRPPRLPRPRPRPKRLPRP	Escherichia coli TOP10	shrunken log2 fold change	0.0697
RRIRHRPPRLPRPRPRPGLKPRP	Escherichia coli TOP10	shrunken log2 fold change	0.182
RRIRKRPPRLPRPRPRPKSDPRP	Escherichia coli TOP10	shrunken log2 fold change	-0.015
RRIRTRPPRLPRPRPRPFTAPRP	Escherichia coli TOP10	shrunken log2 fold change	-0.473
RRIRDRPPRLPRPRPRPSAHPRP	Escherichia coli TOP10	shrunken log2 fold change	0.127
RRIRNRPPRLPRPRPRPNLPPRP	Escherichia coli TOP10	shrunken log2 fold change	-0.0407
RRIRNRPPRLPRPRPRPAYWPRP	Escherichia coli TOP10	shrunken log2 fold change	0.0638
RRIRWRPPRLPRPRPRPEMNPRP	Escherichia coli TOP10	shrunken log2 fold change	0.753
RRIRVRPPRLPRPRPRPAANPRP	Escherichia coli TOP10	shrunken log2 fold change	-0.00167
RRIRWRPPRLPRPRPRPNHVPRP	Escherichia coli TOP10	shrunken log2 fold change	-0.651
RRIRVRPPRLPRPRPRPPIQPRP	Escherichia coli TOP10	shrunken log2 fold change	-0.245
RRIRPRPPRLPRPRPRPLWPPRP	Escherichia coli TOP10	shrunken log2 fold change	0.325
RRIRARPPRLPRPRPRPYNMPRP	Escherichia coli TOP10	shrunken log2 fold change	-0.809
RRIRGRPPRLPRPRPRPWFVPRP	Escherichia coli TOP10	shrunken log2 fold change	-0.314
RRIRLRPPRLPRPRPRPVNEPRP	Escherichia coli TOP10	shrunken log2 fold change	-0.0825
RRIRCRPPRLPRPRPRPTFWPRP	Escherichia coli TOP10	shrunken log2 fold change	0.174
RRIRMRPPRLPRPRPRPGMAPRP	Escherichia coli TOP10	shrunken log2 fold change	1.19
RRIRARPPRLPRPRPRPHVMPRP	Escherichia coli TOP10	shrunken log2 fold change	-0.0593
RRIRERPPRLPRPRPRPYMQPRP	Escherichia coli TOP10	shrunken log2 fold change	-0.326
RRIRDRPPRLPRPRPRPMRMPRP	Escherichia coli TOP10	shrunken log2 fold change	0.199
RRIRTRPPRLPRPRPRPEPSPRP	Escherichia coli TOP10	shrunken log2 fold change	0.534
RRIRSRPPRLPRPRPRPGVVPRP	Escherichia coli TOP10	shrunken log2 fold change	0.295
RRIRERPPRLPRPRPRPAWLPRP	Escherichia coli TOP10	shrunken log2 fold change	0.471
